Data provenance is patent US20200247894A1.

- targetDesc: T1, Human IL2Rγ extracellular domain expressed with a C-terminal myc-myc-hexahistidine tag (human)
- T1 construct: also called hIL-2Rg-MMH; hIL-2RG-MMH
- T1 chain: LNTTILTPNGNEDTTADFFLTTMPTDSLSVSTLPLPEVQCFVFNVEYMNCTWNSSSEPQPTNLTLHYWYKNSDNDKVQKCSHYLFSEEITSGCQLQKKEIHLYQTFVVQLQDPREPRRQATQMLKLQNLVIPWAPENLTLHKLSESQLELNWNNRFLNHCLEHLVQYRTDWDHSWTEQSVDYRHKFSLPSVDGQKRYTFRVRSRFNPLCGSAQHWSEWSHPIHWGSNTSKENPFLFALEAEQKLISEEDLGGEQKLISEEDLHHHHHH
- experimentSummary: SPR, captured mAb, 25C, dissociation pH 7.4
Listed below: koff values for each entry.
Express it in s⁻¹; write the number only.

Worked cases, koff given:
binder	koff (s⁻¹)
H4H12889P (antibody, human IgG4 S228P, kappa, V domains shown, anti-IL2Rgamma mAb expressed with human IgG4 Fc; also called REGN7257) VH: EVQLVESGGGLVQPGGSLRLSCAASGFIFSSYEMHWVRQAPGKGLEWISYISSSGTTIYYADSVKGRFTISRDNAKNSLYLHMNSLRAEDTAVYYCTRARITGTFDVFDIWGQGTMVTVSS VL: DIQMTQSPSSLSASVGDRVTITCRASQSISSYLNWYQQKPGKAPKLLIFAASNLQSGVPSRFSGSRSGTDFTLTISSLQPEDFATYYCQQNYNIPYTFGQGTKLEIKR	0.000138
H4H12858P (antibody, human IgG4 S228P, kappa, V domains shown, anti-IL2Rgamma mAb expressed with human IgG4 Fc; also called REGN9433) VH: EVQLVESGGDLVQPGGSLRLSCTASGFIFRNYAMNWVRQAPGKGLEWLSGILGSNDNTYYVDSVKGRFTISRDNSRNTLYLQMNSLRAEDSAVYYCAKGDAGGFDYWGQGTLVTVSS VL: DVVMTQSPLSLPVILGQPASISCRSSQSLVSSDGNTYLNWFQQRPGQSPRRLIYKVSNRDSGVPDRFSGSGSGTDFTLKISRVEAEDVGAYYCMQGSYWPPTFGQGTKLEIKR	0.000184
H4H13538P (antibody, human IgG4 S228P, kappa, V domains shown, anti-IL2Rgamma mAb expressed with human IgG4 Fc) VH: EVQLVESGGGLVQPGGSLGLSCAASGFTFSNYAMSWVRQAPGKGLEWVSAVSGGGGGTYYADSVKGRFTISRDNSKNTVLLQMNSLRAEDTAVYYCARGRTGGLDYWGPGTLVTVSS VL: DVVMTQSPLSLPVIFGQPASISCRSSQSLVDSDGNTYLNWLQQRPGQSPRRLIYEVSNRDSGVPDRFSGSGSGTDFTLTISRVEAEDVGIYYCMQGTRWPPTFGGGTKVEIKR	0.000139

Now let's try a different one.
Q: Could you tell me which koff is on file for H4H12884P (antibody, human IgG4 S228P, kappa, V domains shown, anti-IL2Rgamma mAb expressed with human IgG4 Fc) VH: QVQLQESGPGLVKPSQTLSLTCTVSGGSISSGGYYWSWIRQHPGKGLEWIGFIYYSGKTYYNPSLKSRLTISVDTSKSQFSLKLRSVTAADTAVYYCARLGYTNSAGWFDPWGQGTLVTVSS VL: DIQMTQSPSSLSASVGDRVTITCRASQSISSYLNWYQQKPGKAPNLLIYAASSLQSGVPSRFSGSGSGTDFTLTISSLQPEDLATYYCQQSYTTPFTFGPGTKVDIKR ?
Ans: 0.00064
